Assay: LA concentration in porcine intestinal fluid collected via in vivo ultrafiltration probes, UPLC-MS/MS
Settings: female, Yorkshire cross, pig, intestinal fluid (distal duodenum), po, 1 mg
Ends that are not written are not given here.
Reported Property: level at time molar at 1 h

>>> print(df.to_string())
                     record_sequence  result
0  GGVLVQPG [LA, Larazotide acetate]  740 nM

###

Assay: LA concentration in porcine intestinal fluid collected via in vivo ultrafiltration probes, UPLC-MS/MS;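 further: pigs aged 6–8 weeks and weighing 15–20 kg, intestinal fluid sampled through surgically implanted ultrafiltration probes whose placement was checked post mortem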
Details: female, Yorkshire cross, pig, intestinal fluid, proximal jejunum, po, 1 mg, LA concentration (µM), oral 1 mg LA human clinical formulation, 2h, case number 3, single measurement
Ends that are not written are not given here.
Reported Property: level at time molar at 2 h (µM)

In [3]: df
Out[3]:
                     record_sequence  quantitative_result
0  GGVLVQPG [LA, Larazotide acetate]                 0.43
